Assay: HepG2 liver cancer cell viability effects, profiling panel, resazurin fluorescence, 24 h, PK04 Diversity Set (AID 1172); also: test concentration not given here
Settings: higher = more signal
endpointName: z-score
Lab note: write the figure by itself, no unit.

Recorded results for 2 compounds are shown here.
C=C(COC)/C(=C/C[C@H](OC(=O)c1ccncc1)c1ccc(OCCO)cc1)c1cc(C(=O)OC)ccc1OC
0.672
COc1ccc(CCNC(=O)[C@@]2(Sc3ccc(C)cc3)CC(=O)N(C(C)C)[C@@H]2c2ccc(CO)cc2)cc1
-0.335

Note: attention shifts to another entry.
z-score in this record for `Cc1ccc(S[C@]2(C(=O)NCC(F)(F)F)CC(=O)N(C3CCCCC3)[C@@H]2c2ccc(CO)cc2)cc1` : -0.473

* * *

Assay: small-molecule microarray binders of probe aCHRDL2, primary screen, biochemical, biotinylated probe, 635/667 nm fluorescence (AID 1100)
Settings: higher = more signal
endpointName: composite z-score
Write no unit; give the number alone.

Consider the following illustrative entries.
C#CCN([C@H](/C=C/C1CC1)[C@@H](O)Cc1ccccc1)[C@@H](Cc1ccccc1)C(=O)OC
0.0495
COc1ccc([Si](C)(C)[C@H]2[C@H](CCO)O[C@@]3(C(=O)N(Cc4ccccc4)c4ccc(N(C=O)c5ccccc5)cc43)[C@@H]2C)cc1
-0.19
COC(=O)[C@@]1(Cc2ccc(F)cc2)[C@H]2c3cc(C(=O)N(C)C)n(CCO)c3C[C@H]2CN1C(=O)c1ccccc1
0.361
NCCCC[C@@H]1NC(=O)[C@H]2C[C@@H](C(=O)NCc3ccc(F)cc3)[C@@H](c3ccc(O)cc3)N2C1=O
1.07
COc1ccc([Si](C)(C)[C@H]2[C@H](CCn3cc([C@H](O)c4ccccc4)nn3)O[C@@]3(C(=O)N(c4ccccc4)c4ccccc43)[C@@H]2C)cc1
0.0759
CN(C)CCCCNC(=O)[C@H]1C[C@H]2C(=O)NCC(=O)N2[C@H]1c1cccc(OCCO)c1
0.084
CN1C(=O)C2C=CC(C(O)c3ccc(-c4ccccc4)s3)N(Nc3ccccc3)C2C1=O (configuration not stated)
1.1
CCOC(=O)C[C@H]1[C@H](OC(=O)Cc2ccc3c(c2)OCO3)[C@@H](NC(=O)c2ccccc2)c2cc(OCCCO)ccc2N1C(=O)Cc1ccc(OC)cc1
-0.167
CC(C)C[C@@H]1NC(=O)[C@@H]2C[C@H](C(=O)O)[C@H](c3ccc(O)cc3)N2C1=O
0.383
C=CCC(OC(C)=O)[C@@H]1[C@@H](N(Cc2ccc(-c3cccc(C(F)(F)F)c3)o2)C(=O)c2cccc3ccccc23)c2cc(OCCCO)ccc2N1C(=O)c1ccc2ccccc2c1 (some centres not stated)
0.256

Input `N[C@@H](Cc1ccccc1)Cn1cc(C2(O)CCCCC2)nn1` . Output composite z-score: 0.174

Lab note: measured composite z-score of `CCCC[C@@H]1C[C@H]1[C@@H](NC(=O)Cc1ccccc1)c1ccc(Cl)cc1` was 1.45

* * *

Assay: small-molecule microarray binders of probe aDKK1, primary screen, biochemical, biotinylated probe, 635/667 nm fluorescence (AID 1099);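 also: score merges 667nm spot fluorescence with signal to noise across triplicate slides; reference of the scale not given here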
Details: higher = more signal
Rule: composite z-score of 0.4 or more gives condition met; anything lower gives condition not met.

Completed entries (count: 5):
COCCCNC(=O)[C@@]1(Sc2ccc(C)cc2)CC(=O)N(C2CCCCC2)[C@@H]1c1ccc(CO)cc1I
condition met
C=C(/C(=C/C[C@H](OC(=O)c1ccncc1)c1ccccc1OCCO)c1cc(C(=O)OC)ccc1OC)C(C)C
condition not met
Cc1ccc(S[C@]2(C(=O)NCCCN(C)C)CC(=O)N(Cc3ccccc3Cl)[C@@H]2c2ccc(CO)cc2I)cc1
condition met
CC(C)C[C@@H]1NC(=O)[C@@H]2C[C@H](C(=O)O)[C@H](c3ccc(O)cc3)N2C1=O
condition not met
CC(C)C[C@@H]1NC(=O)[C@H]2C[C@@H](C(=O)NCCCCCCNC(=O)CS)[C@@H](c3ccc(O)cc3)N2C1=O
condition not met

Request: Given `COC(=O)C(CC#Cc1ccc2c(c1)[C@]1(C(=O)N2)[C@H](c2ccc(O)cc2)N2[C@H](c3ccccc3)[C@H](c3ccccc3)OC(=O)[C@H]2[C@@H]1C(=O)N1CCc2cc(OC)c(OC)cc2C1)C(=O)OC` , state whether its composite z-score is at least 0.4.
Response: condition met

* * *

Test: small-molecule microarray binders of probe aDKK1, primary screen, biochemical, biotinylated probe, 635/667 nm fluorescence (AID 1099);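 also: score merges 667nm spot fluorescence with signal to noise across triplicate slides; reference of the scale not given here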
Settings: higher = more signal
Decision: composite z-score >= 0.1 yields rule met, all other cases yield rule not met.

Consider the worked cases shown below.
C=C(/C(=C/C[C@@H](OC(C)=O)c1ccccc1OCCO)c1cc(C(=O)OC)ccc1OC)C(C)C
rule not met
CCCC[C@@H]1C[C@H]1[C@@H](NC(=O)Cc1ccccc1)c1ccc(Cl)cc1
rule met
COc1ccc(C#Cc2ccc3c(c2)[C@]2(C(=O)N3)[C@H](C(=O)Nc3nc4ccccc4s3)[C@H]3C(=O)O[C@H](c4ccccc4)[C@H](c4ccccc4)N3[C@@H]2c2ccc(OCCO)cc2)cc1
rule met
C=CCOC(=O)[C@H]1[C@@H]2C(=O)O[C@@H](c3ccccc3)[C@@H](c3ccccc3)N2[C@@H](c2ccc(OCCOC(=O)[C@@H]3C[C@@H]4C(=O)N[C@@H](Cc5ccccc5)C(=O)N4[C@@H]3c3ccc(O)cc3)cc2)[C@]12C(=O)Nc1ccccc12
rule not met
COc1ccc(CC[C@H](O)c2cccc(OCC(=O)OC(C)(C)C)c2)cc1
rule met
Cc1ccc(S[C@]2(C(=O)NCCN3CCOCC3)CC(=O)N(C3CCCCC3)[C@@H]2c2ccc(CO)cc2I)cc1
rule not met
CC(C)[C@@H](C(=O)O)n1cc(-c2ccccc2)nn1
rule met
CO[C@H]1O[C@H](CO)[C@@H](OC(=O)Nc2ccc(C(F)(F)F)cc2)[C@H](OC(=O)Nc2ccccc2-c2ccccc2)[C@H]1OC(=O)Nc1ccccc1-c1ccccc1
rule met
C=CCOC(=O)[C@H]1[C@@H]2C(=O)O[C@@H](c3ccccc3)[C@@H](c3ccccc3)N2[C@@H](c2ccc(OCCOC(=O)[C@H]3C[C@H]4C(=O)NCC(=O)N4[C@H]3c3ccc(O)cc3)cc2)[C@]12C(=O)Nc1ccc(I)cc12
rule not met
[N-]=[N+]=NCc1ccccc1C[C@]1(C(=O)N2CCOCC2)N=C(c2ccc(OCCCO)cc2)O[C@H]1c1ccccc1CN=[N+]=[N-]
rule met

Request: Given `CCCC[C@H]1OB(O)C[C@H]2C1=C(C)C[C@H]1C(=O)C=CC(=O)[C@H]12` , state whether its composite z-score is at least 0.1.
Response: rule not met

Request: Decide: composite z-score of `C=CC[C@]1(C(=O)OC)N=C(c2ccc(OCCCO)cc2)O[C@H]1c1ccccc1N=[N+]=[N-]` >= 0.1?
Response: rule met

Request: Please tell me: is the molecule `COCCOC(=O)N1C(=O)[C@@]2(c3cc(C#Cc4ccc(OC)cc4)ccc31)[C@H](c1ccc(OCCO)cc1)N1[C@H](c3ccccc3)[C@H](c3ccccc3)OC(=O)[C@H]1[C@@H]2C(=O)N1CCCCCCC1` at or over 0.1 in terms of composite z-score?
Response: rule met

Request: Assess whether reported composite z-score for `CC(C)C[C@@H]1NC(=O)[C@H]2C[C@@H](C(=O)NCCCCCNC(=O)CS)[C@@H](c3ccc(O)cc3)N2C1=O` sits at 0.1 or higher.
Response: rule not met

Request: Reported composite z-score at or above 0.1? `C/C=C/CN(C(=O)C#Cc1ccccc1)[C@H](CO[Si](C)(C)C(C)(C)C)c1ccccc1`
Response: rule not met

* * *

Test: small-molecule microarray binders of probe aShh, primary screen, biochemical, biotinylated probe, 635/667 nm fluorescence (AID 1114);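 also: probe is biotin-labelled aShh protein from a stem cell growth factor screen; measures binding of labelled protein to compounds printed on the slide; score merges feature fluorescence at 667 nm with signal-to-noise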
Details: higher = more signal
composite z-score vs 0.2: at or above is Yes, below is No.

COC(=O)Cn1c(C(=O)N(C)C)cc2c1C[C@H]1CN(C(=O)c3ccccc3)[C@@](Cc3ccc(OC)cc3)(C(=O)OC)[C@@H]21
Yes
COC(=O)C1=CC(CCCO)=CC(c2ccc(CN3CCCC3)cc2)N(Cc2sc3ccccc3c2Cl)C=C1C(=O)OC (stereo not drawn)
Yes

Request: Entry Cc1ccccc1C(O)C1C=CC2C(=O)N(c3ccccc3)C(=O)C2N1Nc1ccccc1F (stereo not drawn) : is its composite z-score no less than 0.2?
Response: Yes

Request: Does composite z-score meet or surpass 0.2 for `C=CC[C@@]12N=C(c3ccc(OCCCO)cc3)O[C@@H]1c1ccccc1N(Cc1ccccc1)C2=O` ?
Response: No

Request: Record `CN(C)CCCNC(=O)[C@@]1(Cc2ccccc2I)c2ccccc2C(=O)N(Cc2ccccc2)[C@H]1c1ccc(CO)cc1` ; criterion: composite z-score no lower than 0.2. Met?
Response: No

Request: Determine whether measured composite z-score meets or exceeds 0.2 for `NCCCC[C@@H]1NC(=O)[C@H]2C[C@@H](C(=O)O)[C@@H](c3cccc(OCCO)c3)N2C1=O`
Response: No

Request: Determine whether this compound has composite z-score no lower than 0.2: C=CCC(OC(C)=O)[C@@H]1[C@@H](N(Cc2cccc3ccccc23)C(=O)c2ccc(C)cc2)c2cc(OCCCO)ccc2N1C(=O)c1ccc2ccccc2n1 (stereo partly drawn)
Response: No

Request: Is it the case that `COC(=O)C(CC#Cc1ccc2c(c1)[C@]1(C(=O)N2)[C@H](c2ccc(O)cc2)N2[C@H](c3ccccc3)[C@H](c3ccccc3)OC(=O)[C@H]2[C@@H]1C(=O)N1CCc2cc(OC)c(OC)cc2C1)C(=O)OC` has composite z-score reaching or exceeding 0.2?
Response: Yes

Request: Does `CN(C)CCCC[C@@H]1NC(=O)[C@H]2C[C@@H](C(=O)O)[C@@H](c3cccc(OCCO)c3)N2C1=O` have a reported composite z-score of at least 0.2?
Response: No
